# Experimental Target: UniProtKB P35235
# Sequence (P35235 2-593 limits assumed, change not shown): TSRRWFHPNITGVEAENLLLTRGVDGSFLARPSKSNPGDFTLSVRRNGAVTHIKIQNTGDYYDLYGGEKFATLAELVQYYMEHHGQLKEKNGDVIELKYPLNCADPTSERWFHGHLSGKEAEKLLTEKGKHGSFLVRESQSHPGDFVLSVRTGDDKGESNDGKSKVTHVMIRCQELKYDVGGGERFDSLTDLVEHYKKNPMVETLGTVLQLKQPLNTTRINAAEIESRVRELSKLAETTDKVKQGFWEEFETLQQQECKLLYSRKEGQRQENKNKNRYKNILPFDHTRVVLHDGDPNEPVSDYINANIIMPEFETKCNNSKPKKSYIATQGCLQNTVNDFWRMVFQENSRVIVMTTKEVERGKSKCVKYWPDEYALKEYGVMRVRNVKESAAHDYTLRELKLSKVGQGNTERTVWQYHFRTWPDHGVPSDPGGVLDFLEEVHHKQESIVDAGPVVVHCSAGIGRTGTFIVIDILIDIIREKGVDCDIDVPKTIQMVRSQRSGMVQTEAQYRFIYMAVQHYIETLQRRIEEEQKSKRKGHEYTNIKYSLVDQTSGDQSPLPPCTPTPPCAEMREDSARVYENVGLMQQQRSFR
# Assay Text: Inhibition of SHP2 in mouse EMT6 cells harboring SOS1 mutation
Measure Name: IC50 (nM)
The response must be a number in nM with no trailing unit.

Report value only: IC50, UniProtKB P35235, Cc1nc(N2CCC3(CC2)CO[C@@H](C)[C@H]3N)c(CO)nc1-c1cccc(Cl)c1Cl
7

====

# Tested on: BaF3
# Assay Text: Cytotoxicity against mouse BaF3 cells assessed as inhibition of cell proliferation incubated for 48 hrs by MTT assay
# Type: functional, cell-based
# Measurement Context: BaF3, 48 h
Measure Name: IC50 (µM)
The response must be a number in µM with no trailing unit.

Report measured IC50; entry is NCC1CCN(c2ncc(-c3cccc(Cl)c3Cl)cc2CO)CC1
2.35

Report measured IC50; entry is CC1(N)CCN(c2cnc(-c3cccc(Cl)c3Cl)c(N)n2)CC1
19.9
